Target: Histone acetyltransferase p300 (Homo sapiens)
Sequence (Q09472 whole entry): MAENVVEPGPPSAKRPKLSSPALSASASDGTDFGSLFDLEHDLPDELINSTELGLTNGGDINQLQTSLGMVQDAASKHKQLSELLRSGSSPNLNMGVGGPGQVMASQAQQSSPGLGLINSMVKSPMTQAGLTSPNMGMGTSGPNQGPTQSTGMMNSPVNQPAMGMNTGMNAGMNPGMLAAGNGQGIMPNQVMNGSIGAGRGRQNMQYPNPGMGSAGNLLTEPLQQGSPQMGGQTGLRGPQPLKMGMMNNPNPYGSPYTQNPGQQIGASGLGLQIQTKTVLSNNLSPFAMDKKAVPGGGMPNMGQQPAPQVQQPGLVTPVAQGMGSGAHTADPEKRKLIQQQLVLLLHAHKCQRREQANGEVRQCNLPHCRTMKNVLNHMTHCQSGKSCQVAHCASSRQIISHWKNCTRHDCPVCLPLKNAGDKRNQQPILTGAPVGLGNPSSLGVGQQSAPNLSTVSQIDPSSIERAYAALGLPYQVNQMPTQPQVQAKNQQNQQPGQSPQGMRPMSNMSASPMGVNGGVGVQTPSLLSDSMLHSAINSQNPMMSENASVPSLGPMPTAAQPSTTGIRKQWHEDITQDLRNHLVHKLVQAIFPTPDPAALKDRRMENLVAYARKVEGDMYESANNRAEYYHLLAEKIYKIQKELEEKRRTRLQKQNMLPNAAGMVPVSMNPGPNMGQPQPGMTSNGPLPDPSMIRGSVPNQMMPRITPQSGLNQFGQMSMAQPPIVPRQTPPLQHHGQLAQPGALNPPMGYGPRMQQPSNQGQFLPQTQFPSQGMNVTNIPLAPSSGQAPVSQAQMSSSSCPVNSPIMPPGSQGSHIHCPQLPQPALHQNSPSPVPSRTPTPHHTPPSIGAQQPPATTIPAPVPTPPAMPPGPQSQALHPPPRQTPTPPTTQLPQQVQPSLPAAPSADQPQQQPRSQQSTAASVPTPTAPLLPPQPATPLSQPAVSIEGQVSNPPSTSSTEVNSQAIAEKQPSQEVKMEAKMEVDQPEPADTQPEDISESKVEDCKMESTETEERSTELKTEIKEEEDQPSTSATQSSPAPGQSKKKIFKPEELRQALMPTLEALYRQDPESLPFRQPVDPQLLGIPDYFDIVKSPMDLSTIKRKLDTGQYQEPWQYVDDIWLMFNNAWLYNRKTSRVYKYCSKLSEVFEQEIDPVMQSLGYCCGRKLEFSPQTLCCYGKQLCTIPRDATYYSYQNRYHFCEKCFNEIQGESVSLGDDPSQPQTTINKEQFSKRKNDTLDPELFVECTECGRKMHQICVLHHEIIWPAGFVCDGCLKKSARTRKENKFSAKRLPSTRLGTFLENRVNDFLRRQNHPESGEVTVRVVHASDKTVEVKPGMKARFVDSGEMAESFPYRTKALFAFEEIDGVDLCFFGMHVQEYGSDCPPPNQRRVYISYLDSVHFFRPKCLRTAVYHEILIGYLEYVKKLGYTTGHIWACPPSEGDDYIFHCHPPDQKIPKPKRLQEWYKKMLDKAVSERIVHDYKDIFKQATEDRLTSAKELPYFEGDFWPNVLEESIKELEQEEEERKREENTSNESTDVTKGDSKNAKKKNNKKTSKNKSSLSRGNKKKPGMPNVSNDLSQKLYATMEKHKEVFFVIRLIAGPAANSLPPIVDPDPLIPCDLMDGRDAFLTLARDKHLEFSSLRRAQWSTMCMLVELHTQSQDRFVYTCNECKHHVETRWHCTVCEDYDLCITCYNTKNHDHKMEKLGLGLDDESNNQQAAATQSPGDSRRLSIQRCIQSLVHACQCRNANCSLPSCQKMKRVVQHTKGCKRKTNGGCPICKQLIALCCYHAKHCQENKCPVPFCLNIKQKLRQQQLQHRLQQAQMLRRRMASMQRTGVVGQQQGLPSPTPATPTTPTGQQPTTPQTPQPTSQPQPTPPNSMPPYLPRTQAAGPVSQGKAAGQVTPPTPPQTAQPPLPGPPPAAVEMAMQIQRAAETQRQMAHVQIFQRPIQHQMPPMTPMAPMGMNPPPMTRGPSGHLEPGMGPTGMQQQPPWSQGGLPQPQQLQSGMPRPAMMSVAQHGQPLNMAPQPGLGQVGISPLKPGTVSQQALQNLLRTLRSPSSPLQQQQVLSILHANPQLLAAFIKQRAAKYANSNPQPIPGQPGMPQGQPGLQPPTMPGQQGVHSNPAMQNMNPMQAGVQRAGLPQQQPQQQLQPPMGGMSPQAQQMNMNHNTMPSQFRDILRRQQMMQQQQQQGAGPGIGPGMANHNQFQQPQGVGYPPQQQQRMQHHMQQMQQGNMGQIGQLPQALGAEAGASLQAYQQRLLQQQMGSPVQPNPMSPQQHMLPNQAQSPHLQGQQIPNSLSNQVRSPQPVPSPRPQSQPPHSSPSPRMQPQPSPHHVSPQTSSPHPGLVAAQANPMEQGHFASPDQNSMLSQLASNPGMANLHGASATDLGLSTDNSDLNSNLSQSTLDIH
Assay: Inhibition of p300 (unknown origin) preincubated for 15 mins followed by addition of substrate [3H] Ac-CoA and measured after 60 mins by liquid scintillation counting assay
pIC50: −log10 of the molar value.

smiles code: CNC(=O)Nc1cc2c(cc1F)[C@@]1(CC2)OC(=O)N(CC(=O)N2Cc3ccc(F)cc3CC[C@H]2C2CC2)C1=O
system: Histone acetyltransferase p300 (Homo sapiens)
pIC50: 8.77
--
smiles code: CNC(=O)Nc1ccc2c(c1)CC[C@@]21OC(=O)N(CC(=O)N2Cc3ccc(F)cc3CC[C@H]2C2CC2)C1=O
system: Histone acetyltransferase p300 (Homo sapiens)
pIC50: 9.02
--
smiles code: CNC(=O)Nc1ccc2c(c1)CC[C@@]21OC(=O)N(CC(=O)N2Cc3cc(F)ccc3OC[C@H]2C2CC2)C1=O
system: Histone acetyltransferase p300 (Homo sapiens)
pIC50: 9.31

----------
Target: CREB-binding protein (Homo sapiens, UniProt Q92793)
Sequence (Q92793 whole entry): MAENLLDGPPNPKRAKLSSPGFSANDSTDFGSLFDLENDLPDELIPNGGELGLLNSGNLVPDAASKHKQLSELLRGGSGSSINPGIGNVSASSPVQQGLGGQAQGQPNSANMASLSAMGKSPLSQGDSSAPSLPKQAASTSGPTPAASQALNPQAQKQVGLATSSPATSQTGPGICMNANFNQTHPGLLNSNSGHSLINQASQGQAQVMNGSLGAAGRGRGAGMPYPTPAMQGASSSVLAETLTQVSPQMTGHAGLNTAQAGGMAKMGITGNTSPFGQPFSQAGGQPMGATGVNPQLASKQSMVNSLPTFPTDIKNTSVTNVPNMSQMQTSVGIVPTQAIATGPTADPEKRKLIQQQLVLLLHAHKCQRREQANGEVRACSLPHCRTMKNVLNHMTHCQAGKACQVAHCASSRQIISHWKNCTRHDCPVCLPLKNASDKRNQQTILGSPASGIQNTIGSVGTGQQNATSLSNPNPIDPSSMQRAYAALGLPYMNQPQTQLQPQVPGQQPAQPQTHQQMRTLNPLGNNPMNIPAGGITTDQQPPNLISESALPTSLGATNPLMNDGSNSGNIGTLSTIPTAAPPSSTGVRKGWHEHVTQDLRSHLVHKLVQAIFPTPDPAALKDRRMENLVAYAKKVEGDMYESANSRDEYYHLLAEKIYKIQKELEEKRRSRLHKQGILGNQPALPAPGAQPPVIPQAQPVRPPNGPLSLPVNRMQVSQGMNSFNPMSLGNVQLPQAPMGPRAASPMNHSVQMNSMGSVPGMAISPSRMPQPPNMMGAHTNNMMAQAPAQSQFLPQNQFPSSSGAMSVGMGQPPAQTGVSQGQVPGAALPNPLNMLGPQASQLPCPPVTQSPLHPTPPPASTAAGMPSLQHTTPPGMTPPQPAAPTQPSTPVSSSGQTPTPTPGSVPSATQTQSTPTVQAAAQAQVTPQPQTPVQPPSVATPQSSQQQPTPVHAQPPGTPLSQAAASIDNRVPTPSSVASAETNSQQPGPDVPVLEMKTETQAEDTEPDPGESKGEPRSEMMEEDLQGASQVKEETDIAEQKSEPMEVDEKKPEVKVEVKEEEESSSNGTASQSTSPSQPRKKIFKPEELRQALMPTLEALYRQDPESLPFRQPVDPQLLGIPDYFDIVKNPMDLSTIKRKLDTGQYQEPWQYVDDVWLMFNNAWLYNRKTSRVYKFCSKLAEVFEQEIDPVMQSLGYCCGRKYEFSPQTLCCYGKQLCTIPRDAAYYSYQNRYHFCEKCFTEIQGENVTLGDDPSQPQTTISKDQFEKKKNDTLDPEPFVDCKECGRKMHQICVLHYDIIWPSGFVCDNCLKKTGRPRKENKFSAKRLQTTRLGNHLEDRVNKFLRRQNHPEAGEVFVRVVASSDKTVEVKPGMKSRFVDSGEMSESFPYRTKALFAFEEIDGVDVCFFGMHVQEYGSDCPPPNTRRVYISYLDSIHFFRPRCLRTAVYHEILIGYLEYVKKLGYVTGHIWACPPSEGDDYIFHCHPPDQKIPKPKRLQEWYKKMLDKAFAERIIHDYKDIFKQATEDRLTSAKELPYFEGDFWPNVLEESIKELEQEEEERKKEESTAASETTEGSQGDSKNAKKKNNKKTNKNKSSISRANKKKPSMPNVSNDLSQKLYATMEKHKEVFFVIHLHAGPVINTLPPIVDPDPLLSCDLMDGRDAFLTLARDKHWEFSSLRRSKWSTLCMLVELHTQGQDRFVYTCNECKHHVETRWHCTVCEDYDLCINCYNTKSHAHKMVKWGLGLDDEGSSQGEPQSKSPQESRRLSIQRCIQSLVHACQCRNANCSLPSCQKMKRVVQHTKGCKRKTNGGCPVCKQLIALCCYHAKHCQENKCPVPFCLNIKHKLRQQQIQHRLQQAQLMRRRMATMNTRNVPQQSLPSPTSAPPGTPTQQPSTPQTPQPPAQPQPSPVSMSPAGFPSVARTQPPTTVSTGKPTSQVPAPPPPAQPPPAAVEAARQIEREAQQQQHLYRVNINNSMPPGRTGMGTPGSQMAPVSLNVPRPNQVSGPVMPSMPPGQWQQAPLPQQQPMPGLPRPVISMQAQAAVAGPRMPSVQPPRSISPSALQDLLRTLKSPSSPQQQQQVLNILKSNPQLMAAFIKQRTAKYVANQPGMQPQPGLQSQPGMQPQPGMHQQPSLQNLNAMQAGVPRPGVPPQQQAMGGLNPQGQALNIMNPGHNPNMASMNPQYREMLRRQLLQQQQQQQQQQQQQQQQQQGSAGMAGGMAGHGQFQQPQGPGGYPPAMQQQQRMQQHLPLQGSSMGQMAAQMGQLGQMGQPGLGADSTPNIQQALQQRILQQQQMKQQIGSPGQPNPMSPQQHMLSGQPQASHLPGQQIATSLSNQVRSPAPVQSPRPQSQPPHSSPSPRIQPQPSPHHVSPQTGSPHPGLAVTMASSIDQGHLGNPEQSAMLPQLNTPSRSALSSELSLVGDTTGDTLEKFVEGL
pIC50: −log10 of the molar value.
Listed molecules paired with reported pIC50

smiles code: CNC(=O)Nc1ccc2c(c1)OCC[C@@]21OC(=O)N(CC(=O)N2Cc3ccc(F)cc3CC[C@H]2C2CC2)C1=O
pIC50: 7.66

smiles code: CNC(=O)Nc1ccc2c(c1)CC[C@@]21OC(=O)N(CC(=O)N2Cc3cc(F)ccc3OC[C@H]2C2CC2)C1=O
pIC50: 8.15

smiles code: CNC(=O)Nc1ccc2c(c1)CC[C@@]21OC(=O)N(CC(=O)N2Cc3ccncc3CC[C@H]2C2CC2)C1=O
pIC50: 7.55

smiles code: CNC(=O)Nc1ccc2c(c1)CC[C@@]21OC(=O)N(CC(=O)N2Cc3ncccc3CC[C@H]2C2CC2)C1=O
pIC50: 7.52

smiles code: CNC(=O)Nc1ccc2c(c1)CC[C@@]21OC(=O)N(CC(=O)N2Cc3cnccc3CC[C@H]2C2CC2)C1=O
pIC50: 7.39

smiles code: CNC(=O)Nc1ccc2c(c1)CCC[C@@]21OC(=O)N(CC(=O)N2Cc3cc(F)ccc3OC[C@H]2C2CC2)C1=O
pIC50: 7.16

smiles code: CNC(=O)Nc1ccc2c(c1)CC[C@@]21OC(=O)N(CC(=O)N2Cc3cc(F)c(F)cc3CC[C@H]2C2CC2)C1=O
pIC50: 8.15

smiles code: CNC(=O)Nc1ccc2c(c1)CC[C@@]21OC(=O)N(CC(=O)N2Cc3ccccc3CC[C@H]2C)C1=O
pIC50: 7.55

----------
Target: Histone acetyltransferase p300 (Homo sapiens)
Experiment: Inhibition of p300 (unknown origin)
pIC50: −log10 of the molar value.

smiles code: CNC(=O)Nc1ccc2c(c1)CC[C@@]21OC(=O)N(CC(=O)N2Cc3cc(F)ccc3OC[C@H]2C2CC2)C1=O
pIC50: 9.29

----------
Each item that follows carries a reported log10 of IC50.
Target: Histone acetyltransferase p300 (Homo sapiens)
Assay: Inhibition of p300 (unknown origin) preincubated for 15 mins followed by addition of substrate [3H] Ac-CoA and measured after 60 mins by liquid scintillation counting assay
parameter measured: log10 of IC50 (log10 of the value in nM)

smiles code: CNC(=O)Nc1ccc2c(c1)CC[C@@]21OC(=O)N(CC(=O)N2Cc3cnccc3CC[C@H]2C2CC2)C1=O
system: Histone acetyltransferase p300 (Homo sapiens)
experimental value: 1.11
--
smiles code: CNC(=O)Nc1ccc2c(c1)CC[C@@]21OC(=O)N(CC(=O)N2Cc3cc(F)c(F)cc3CC[C@H]2C2CC2)C1=O
system: Histone acetyltransferase p300 (Homo sapiens)
experimental value: -0.25
--
smiles code: CNC(=O)Nc1ccc2c(c1)CCC[C@@]21OC(=O)N(CC(=O)N2Cc3ccc(F)cc3CC[C@H]2C2CC2)C1=O
system: Histone acetyltransferase p300 (Homo sapiens)
experimental value: 0.34
--
smiles code: CNC(=O)Nc1ccc2c(c1)COC[C@@]21OC(=O)N(CC(=O)N2Cc3cc(F)ccc3OC[C@H]2C2CC2)C1=O
system: Histone acetyltransferase p300 (Homo sapiens)
experimental value: 1.08
--
smiles code: CNC(=O)Nc1ccc2c(c1)CC[C@@]21OC(=O)N(CC(=O)N2Cc3ccncc3CC[C@H]2C2CC2)C1=O
system: Histone acetyltransferase p300 (Homo sapiens)
experimental value: 0.99
--
smiles code: CNC(=O)Nc1ccc2c(c1)CC[C@@]21OC(=O)N(CC(=O)N2Cc3sccc3OC[C@H]2C2CC2)C1=O
system: Histone acetyltransferase p300 (Homo sapiens)
experimental value: 0.60
--
smiles code: CNC(=O)Nc1ccc2c(c1)CC[C@@]21OC(=O)N(CC(=O)N2Cc3ncccc3CC[C@H]2C2CC2)C1=O
system: Histone acetyltransferase p300 (Homo sapiens)
experimental value: 0.93
--
smiles code: CNC(=O)Nc1ccc2c(c1)OCC[C@@]21OC(=O)N(CC(=O)N2Cc3ccc(F)cc3CC[C@H]2C2CC2)C1=O
system: Histone acetyltransferase p300 (Homo sapiens)
experimental value: 0.93
